Hey, just so you know, these numbers are from patent US11161817B2.

Molecular target: Flt1(h) (Homo sapiens, UniProt P17948)
Test: In vitro kinase activity test, Flt1(h)
Conditions: read-out: Flt1(h) IC50; Table 2; ATP 10 μM
pIC50: −log10 of the molar value.
endpoint label: pIC50

smiles str	assay value
COc1cc2nccc(Oc3ccc(NC(=S)NC4CC4)c(Cl)c3F)c2cc1C(N)=O	7.51

###

Target: c-Met (Homo sapiens, UniProt P08581)
Experiment: In vitro kinase activity test, c-Met
Conditions: c-Met kinase activity IC50, Table 3; value 45.6 is from the second test (Note 1)
endpoint label: IC50 (nM)

smiles str	limit sign	assay value
COc1cc2nccc(Oc3ccc(NC(=O)NC4CC4)c(F)c3)c2cc1C(N)=O	=	282
COc1cc2nccc(Oc3cc(F)c(NC(=O)NC4CC4)cc3F)c2cc1C(N)=O	>	10000
COc1cc2nccc(Oc3cc(F)c(NC(=O)NC4CC4)c(Cl)c3)c2cc1C(N)=O	>	10000
COc1cc2nccc(Oc3ccc(NC(=O)NC4CC4)c(F)c3F)c2cc1C(N)=O	=	79.8
COc1cc2nccc(Oc3ccc(NC(=O)NC4CC4)c(Cl)c3F)c2cc1C(N)=O	=	45.6
COc1cc2nccc(Oc3cc(Cl)c(NC(=O)NC4CC4)cc3F)c2cc1C(N)=O	=	32

###

Assay: Pharmacokinetic evaluation in rats, intravenous and oral administration
Type: in vivo, SD rats
Settings: rat, plasma; male SD rats, intravenous injection, 1.0 mg/kg, single; read-out: apparent volume of distribution at steady state (Vdss)
Vd values, listed per item
endpoint label: Vd (L/kg)

compound	endpoint label	units text	assay value
COc1cc2nccc(Oc3ccc(NC(=O)NC4CC4)c(Cl)c3F)c2cc1C(N)=O [Embodiment 1]	Vd	L/kg	0.259
COc1cc2nccc(Oc3ccc(NC(=O)NC4CC4)c(Cl)c3)c2cc1C(N)=O [Comparative Compound 1, Lovatinib]	Vd	L/kg	0.407

###

Target: KDR(h) (Homo sapiens, UniProt P35968)
Sequence (P35968 20-1356): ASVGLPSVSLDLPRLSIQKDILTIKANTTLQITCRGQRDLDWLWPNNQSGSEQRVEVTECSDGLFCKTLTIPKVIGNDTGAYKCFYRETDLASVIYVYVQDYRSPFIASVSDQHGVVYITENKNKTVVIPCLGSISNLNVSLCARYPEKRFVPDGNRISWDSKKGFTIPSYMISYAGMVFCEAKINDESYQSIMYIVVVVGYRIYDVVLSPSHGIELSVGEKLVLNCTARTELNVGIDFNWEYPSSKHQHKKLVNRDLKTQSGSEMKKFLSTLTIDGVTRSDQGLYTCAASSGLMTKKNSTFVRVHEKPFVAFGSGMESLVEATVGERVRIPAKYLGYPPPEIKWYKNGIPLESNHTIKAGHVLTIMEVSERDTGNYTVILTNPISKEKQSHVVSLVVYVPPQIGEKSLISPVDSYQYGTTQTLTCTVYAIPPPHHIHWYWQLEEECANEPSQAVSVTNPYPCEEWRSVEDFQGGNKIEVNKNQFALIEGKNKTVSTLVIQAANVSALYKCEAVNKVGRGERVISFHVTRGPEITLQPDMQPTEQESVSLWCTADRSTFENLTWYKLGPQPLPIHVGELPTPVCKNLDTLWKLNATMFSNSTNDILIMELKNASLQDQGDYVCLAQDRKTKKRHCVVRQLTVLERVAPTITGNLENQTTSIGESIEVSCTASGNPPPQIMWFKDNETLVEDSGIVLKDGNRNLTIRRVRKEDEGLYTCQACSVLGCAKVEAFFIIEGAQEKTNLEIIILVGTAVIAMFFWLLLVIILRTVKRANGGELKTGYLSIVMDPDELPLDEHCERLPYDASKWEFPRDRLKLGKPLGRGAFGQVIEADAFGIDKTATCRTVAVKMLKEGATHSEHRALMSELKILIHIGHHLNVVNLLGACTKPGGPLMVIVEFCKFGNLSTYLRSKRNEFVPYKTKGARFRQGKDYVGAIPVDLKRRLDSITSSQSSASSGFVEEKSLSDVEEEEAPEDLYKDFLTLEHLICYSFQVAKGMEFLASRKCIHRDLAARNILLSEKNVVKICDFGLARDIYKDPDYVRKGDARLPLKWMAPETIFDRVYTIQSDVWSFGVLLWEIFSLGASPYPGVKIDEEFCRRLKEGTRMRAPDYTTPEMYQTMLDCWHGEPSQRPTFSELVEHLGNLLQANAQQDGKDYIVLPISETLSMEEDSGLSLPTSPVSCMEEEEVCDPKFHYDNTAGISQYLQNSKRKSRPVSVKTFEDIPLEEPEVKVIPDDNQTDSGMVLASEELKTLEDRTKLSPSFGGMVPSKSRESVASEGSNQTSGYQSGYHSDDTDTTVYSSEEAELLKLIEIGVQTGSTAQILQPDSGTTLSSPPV
Assay: In vitro kinase activity test, KDR(h)
Details: read-out: KDR(h) IC50; Table 2; ATP 10 μM
pIC50: −log10 of the molar value.

smiles str	study target	pIC50
COc1cc2nccc(Oc3ccc(NC(=S)NC4CC4)c(Cl)c3F)c2cc1C(N)=O	KDR(h) (Homo sapiens, UniProt P35968)	8.15

###

Experiment: Pharmacokinetic evaluation in rats, intravenous and oral administration
Type: in vivo, SD rats
Conditions: rat, plasma; male SD rats, intravenous injection, 1.0 mg/kg, single; read-out: area under the plasma concentration-time curve (AUC0-last)

smiles str	units text	AUC(0-t)
COc1cc2nccc(Oc3ccc(NC(=O)NC4CC4)c(Cl)c3F)c2cc1C(N)=O	µM·h	23.4
COc1cc2nccc(Oc3ccc(NC(=O)NC4CC4)c(Cl)c3)c2cc1C(N)=O	µM·h	15.1

###

Molecular target: TNIK(h) (Homo sapiens)
Assay: In vitro kinase activity test, TNIK(h)
pIC50: −log10 of the molar value.
Recorded pIC50 for the following compounds
endpoint label: pIC50

compound	endpoint label	assay value
COc1cc2nccc(Oc3ccc(NC(=O)NC4CC4)c(Cl)c3)c2cc1C(N)=O [Comparative Compound 1, Lovatinib]	pIC50	7.04
COc1cc2nccc(Oc3ccc(NC(=O)NC4CC4)c(Cl)c3F)c2cc1C(N)=O [Embodiment 1B]	pIC50	7.85

###

pIC50: −log10 of the molar value.
Below are pIC50 values measured for FGFR3(h) (Homo sapiens).

smiles str	pIC50
COc1cc2nccc(Oc3ccc(NC(=O)NC4CC4)c(Cl)c3)c2cc1C(N)=O	6.88
COc1cc2nccc(Oc3ccc(NC(=O)NC4CC4)c(Cl)c3F)c2cc1C(N)=O	7.59

###

Target: Lck(h) (Homo sapiens, UniProt P06239)
Experiment: In vitro kinase activity test, Lck(h)
Details: read-out: Lck(h) IC50; Table 2; ATP 10 μM
pIC50: −log10 of the molar value.
endpoint label: pIC50

smiles str	study target	assay value
COc1cc2nccc(Oc3ccc(NC(=S)NC4CC4)c(Cl)c3F)c2cc1C(N)=O	Lck(h) (Homo sapiens, UniProt P06239)	6.60

###

Biological target: MINK(h) (Homo sapiens, UniProt Q8N4C8)
Sequence (Q8N4C8 whole entry): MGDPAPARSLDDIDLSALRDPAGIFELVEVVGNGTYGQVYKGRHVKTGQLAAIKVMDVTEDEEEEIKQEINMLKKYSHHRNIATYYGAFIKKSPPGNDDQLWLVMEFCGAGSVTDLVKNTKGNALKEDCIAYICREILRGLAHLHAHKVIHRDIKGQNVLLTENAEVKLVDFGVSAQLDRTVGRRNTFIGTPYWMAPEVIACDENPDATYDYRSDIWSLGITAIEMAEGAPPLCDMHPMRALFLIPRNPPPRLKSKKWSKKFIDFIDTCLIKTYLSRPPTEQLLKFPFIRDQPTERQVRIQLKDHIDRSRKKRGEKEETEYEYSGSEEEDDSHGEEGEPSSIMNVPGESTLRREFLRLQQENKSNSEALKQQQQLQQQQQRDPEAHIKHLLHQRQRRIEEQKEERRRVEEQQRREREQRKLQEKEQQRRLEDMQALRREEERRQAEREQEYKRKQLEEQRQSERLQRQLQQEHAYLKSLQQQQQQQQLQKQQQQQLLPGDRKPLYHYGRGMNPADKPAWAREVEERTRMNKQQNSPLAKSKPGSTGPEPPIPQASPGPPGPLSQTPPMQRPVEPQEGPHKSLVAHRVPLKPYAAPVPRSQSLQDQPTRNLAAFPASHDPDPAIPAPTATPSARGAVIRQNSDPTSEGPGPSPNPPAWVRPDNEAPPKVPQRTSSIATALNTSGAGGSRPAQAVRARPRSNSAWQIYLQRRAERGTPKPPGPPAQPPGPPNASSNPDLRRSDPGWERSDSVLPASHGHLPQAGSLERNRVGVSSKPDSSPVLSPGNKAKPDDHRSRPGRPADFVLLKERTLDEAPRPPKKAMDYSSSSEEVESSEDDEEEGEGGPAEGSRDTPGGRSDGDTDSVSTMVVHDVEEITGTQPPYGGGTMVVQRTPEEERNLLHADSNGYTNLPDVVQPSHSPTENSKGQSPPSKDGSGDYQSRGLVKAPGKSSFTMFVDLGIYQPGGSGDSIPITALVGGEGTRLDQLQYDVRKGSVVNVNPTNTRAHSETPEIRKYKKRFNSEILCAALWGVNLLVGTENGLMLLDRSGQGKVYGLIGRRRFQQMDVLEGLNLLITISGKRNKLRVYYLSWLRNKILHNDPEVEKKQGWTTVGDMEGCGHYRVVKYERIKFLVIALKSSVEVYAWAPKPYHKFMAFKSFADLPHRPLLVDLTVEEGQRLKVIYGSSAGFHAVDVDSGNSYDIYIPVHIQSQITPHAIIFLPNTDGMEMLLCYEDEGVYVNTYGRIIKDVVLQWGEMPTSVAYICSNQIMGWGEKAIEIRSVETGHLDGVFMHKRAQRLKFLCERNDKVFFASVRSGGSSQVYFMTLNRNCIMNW
Assay: In vitro kinase activity test, MINK(h)
Settings: read-out: MINK(h) IC50; Table 2; ATP 10 μM
pIC50: −log10 of the molar value.
endpoint label: pIC50

compound	assay value
COc1cc2nccc(Oc3ccc(NC(=S)NC4CC4)c(Cl)c3F)c2cc1C(N)=O [Comparative Compound 2]	7.26

###

# key: entry, value: IC50
Molecular target: FGFR2(h) (Homo sapiens)
Sequence (P21802 22-821): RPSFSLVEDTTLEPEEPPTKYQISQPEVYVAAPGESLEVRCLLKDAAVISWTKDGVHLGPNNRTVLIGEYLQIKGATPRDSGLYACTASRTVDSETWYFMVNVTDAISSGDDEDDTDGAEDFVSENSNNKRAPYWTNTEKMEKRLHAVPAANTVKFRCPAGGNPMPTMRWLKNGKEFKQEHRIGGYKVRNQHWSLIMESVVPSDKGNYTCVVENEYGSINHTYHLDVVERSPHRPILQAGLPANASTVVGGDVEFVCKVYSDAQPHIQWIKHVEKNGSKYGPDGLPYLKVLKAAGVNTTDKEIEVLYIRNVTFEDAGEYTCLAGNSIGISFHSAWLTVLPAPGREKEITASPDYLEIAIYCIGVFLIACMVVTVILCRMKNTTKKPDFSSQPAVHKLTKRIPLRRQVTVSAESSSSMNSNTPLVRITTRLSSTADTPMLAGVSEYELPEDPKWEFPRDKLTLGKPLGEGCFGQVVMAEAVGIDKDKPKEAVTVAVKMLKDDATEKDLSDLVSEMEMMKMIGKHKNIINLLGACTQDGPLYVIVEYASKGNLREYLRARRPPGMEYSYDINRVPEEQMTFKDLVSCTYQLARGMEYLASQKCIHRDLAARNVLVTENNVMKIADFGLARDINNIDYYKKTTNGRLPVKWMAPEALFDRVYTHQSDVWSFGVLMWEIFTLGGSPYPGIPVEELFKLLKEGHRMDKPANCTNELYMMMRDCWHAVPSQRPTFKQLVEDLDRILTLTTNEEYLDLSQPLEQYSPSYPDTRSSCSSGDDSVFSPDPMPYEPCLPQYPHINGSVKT

smiles str	units text	IC50
COc1cc2nccc(Oc3ccc(NC(=S)NC4CC4)c(Cl)c3F)c2cc1C(N)=O	nM	15
COc1cc2nccc(Oc3ccc(NC(=O)NC4CC4)c(Cl)c3)c2cc1C(N)=O	nM	14

###

Test: Pharmacokinetic evaluation in rats, intravenous and oral administration
Type: in vivo, SD rats
Conditions: rat, plasma, po; male SD rats, intragastric, 5 mg/kg, single; read-out: peak concentration (Cmax)

smiles str	Cmax [µM]
COc1cc2nccc(Oc3ccc(NC(=O)NC4CC4)c(Cl)c3)c2cc1C(N)=O	10.1
COc1cc2nccc(Oc3ccc(NC(=O)NC4CC4)c(Cl)c3F)c2cc1C(N)=O	19.6

###

Biological target: UniProt:P11362
Assay: In vitro kinase activity test, FGFR1(h)
true if IC50 is below 90 nM. false if not; exact matches included in false.

smiles str	group label
COc1cc2nccc(Oc3cc(F)c(NC(=O)NC4CC4)c(Cl)c3)c2cc1C(N)=O	true
COc1cc2nccc(Oc3ccc(NC(=O)NC4CC4)c(Cl)c3F)c2cc1C(N)=O	true
COc1cc2nccc(Oc3ccc(NC(=O)NC4CC4)c(F)c3)c2cc1C(N)=O	false
COc1cc2nccc(Oc3ccc(NC(=O)NC4CC4)c(F)c3F)c2cc1C(N)=O	true
COc1cc2nccc(Oc3ccc(NC(=O)NC4CC4)c(Cl)c3)c2cc1C(N)=O	true
COc1cc2nccc(Oc3cc(F)c(NC(=O)NC4CC4)cc3F)c2cc1C(N)=O	false

###

Biological target: TNIK(h) (Homo sapiens, UniProt Q9UKE5)
Assay: In vitro kinase activity test, TNIK(h)
Conditions: read-out: TNIK(h) IC50; Table 2; ATP 10 μM

smiles str	IC50 / nM
COc1cc2nccc(Oc3ccc(NC(=S)NC4CC4)c(Cl)c3F)c2cc1C(N)=O	118

###

Target: MINK(h) (Homo sapiens)
Test: In vitro kinase activity test, MINK(h)
pIC50: −log10 of the molar value.
Readings of pIC50 for the listed compounds
endpoint label: pIC50

smiles str	assay value
COc1cc2nccc(Oc3ccc(NC(=O)NC4CC4)c(Cl)c3F)c2cc1C(N)=O	7.32
COc1cc2nccc(Oc3ccc(NC(=O)NC4CC4)c(Cl)c3)c2cc1C(N)=O	6.44

###

Molecular target: Abl(h) (Homo sapiens)
Sequence (P00519 whole entry): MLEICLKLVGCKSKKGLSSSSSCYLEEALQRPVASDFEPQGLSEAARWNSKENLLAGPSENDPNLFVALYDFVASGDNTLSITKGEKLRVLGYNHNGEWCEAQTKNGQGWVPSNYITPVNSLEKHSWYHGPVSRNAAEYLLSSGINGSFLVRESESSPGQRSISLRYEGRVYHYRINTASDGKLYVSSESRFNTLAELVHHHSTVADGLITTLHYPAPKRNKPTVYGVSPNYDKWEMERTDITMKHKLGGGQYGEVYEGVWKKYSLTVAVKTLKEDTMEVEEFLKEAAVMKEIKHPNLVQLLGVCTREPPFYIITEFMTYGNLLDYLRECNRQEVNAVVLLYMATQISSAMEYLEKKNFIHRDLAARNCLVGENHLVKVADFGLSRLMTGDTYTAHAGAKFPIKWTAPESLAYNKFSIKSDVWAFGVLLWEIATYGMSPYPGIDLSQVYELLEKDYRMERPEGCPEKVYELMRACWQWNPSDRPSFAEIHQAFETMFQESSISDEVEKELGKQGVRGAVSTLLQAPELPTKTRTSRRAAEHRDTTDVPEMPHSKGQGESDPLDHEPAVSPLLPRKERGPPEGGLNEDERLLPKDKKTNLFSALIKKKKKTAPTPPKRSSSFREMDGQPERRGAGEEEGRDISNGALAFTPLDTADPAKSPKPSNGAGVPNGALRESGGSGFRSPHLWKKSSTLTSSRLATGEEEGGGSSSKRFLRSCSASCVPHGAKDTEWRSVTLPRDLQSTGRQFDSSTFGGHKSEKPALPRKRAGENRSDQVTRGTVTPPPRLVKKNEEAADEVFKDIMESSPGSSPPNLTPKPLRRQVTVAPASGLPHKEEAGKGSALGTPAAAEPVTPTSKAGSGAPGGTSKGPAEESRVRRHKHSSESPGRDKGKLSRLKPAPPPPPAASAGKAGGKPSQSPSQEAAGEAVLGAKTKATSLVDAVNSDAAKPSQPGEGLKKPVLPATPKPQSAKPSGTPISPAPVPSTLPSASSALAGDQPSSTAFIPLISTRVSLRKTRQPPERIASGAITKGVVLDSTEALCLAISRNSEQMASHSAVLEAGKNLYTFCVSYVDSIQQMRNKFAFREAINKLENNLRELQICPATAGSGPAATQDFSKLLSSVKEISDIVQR
Quick rule for you: IC50 under 200 nM gets condition met, anything else gets condition not met.

molecule	group label
COc1cc2nccc(Oc3cc(F)c(NC(=O)NC4CC4)cc3F)c2cc1C(N)=O [Comparative Compound 3]	condition not met
COc1cc2nccc(Oc3ccc(NC(=O)NC4CC4)c(Cl)c3F)c2cc1C(N)=O [Embodiment 1B]	condition met
COc1cc2nccc(Oc3ccc(NC(=O)NC4CC4)c(F)c3F)c2cc1C(N)=O [Comparative Compound 4]	condition not met
COc1cc2nccc(Oc3cc(Cl)c(NC(=O)NC4CC4)cc3F)c2cc1C(N)=O [Comparative Compound 5]	condition not met
COc1cc2nccc(Oc3ccc(NC(=O)NC4CC4)c(F)c3)c2cc1C(N)=O [Comparative Compound 6]	condition not met

###

Target: UniProt:P35968
Test: In vitro kinase activity test, KDR(h)
endpoint label: IC50

smiles str	endpoint label	assay value
COc1cc2nccc(Oc3ccc(NC(=O)NC4CC4)c(Cl)c3F)c2cc1C(N)=O	IC50	9 nM

###

# Lookup of reported IC50 keyed by entry
Target: Lck(h) (Homo sapiens)
Assay: In vitro kinase activity test, Lck(h)
endpoint label: IC50 (nM)

molecule	endpoint label	assay value
COc1cc2nccc(Oc3ccc(NC(=O)NC4CC4)c(Cl)c3)c2cc1C(N)=O [Comparative Compound 1, Lovatinib]	IC50	69
COc1cc2nccc(Oc3ccc(NC(=O)NC4CC4)c(Cl)c3F)c2cc1C(N)=O [Embodiment 1B]	IC50	43

###

Target: Aurora-A(h) (Homo sapiens, UniProt O14965)
Sequence (O14965 whole entry): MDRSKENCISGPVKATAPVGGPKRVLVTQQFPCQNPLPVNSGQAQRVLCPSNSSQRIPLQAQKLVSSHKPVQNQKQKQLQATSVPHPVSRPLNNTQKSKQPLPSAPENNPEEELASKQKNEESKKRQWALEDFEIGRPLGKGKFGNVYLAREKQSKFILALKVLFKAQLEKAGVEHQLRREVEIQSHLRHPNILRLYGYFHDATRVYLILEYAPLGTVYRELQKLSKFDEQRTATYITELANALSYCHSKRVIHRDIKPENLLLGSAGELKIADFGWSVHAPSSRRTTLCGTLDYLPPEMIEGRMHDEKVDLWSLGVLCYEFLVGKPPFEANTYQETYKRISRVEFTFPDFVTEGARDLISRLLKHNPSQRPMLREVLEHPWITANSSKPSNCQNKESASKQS
Assay: In vitro kinase activity test, Aurora-A(h)

compound	IC50
COc1cc2nccc(Oc3ccc(NC(=O)NC4CC4)c(Cl)c3F)c2cc1C(N)=O [Embodiment 1B]	2.08 µM

###

Biological target: cKit(h) (Homo sapiens)
pIC50: −log10 of the molar value.

compound	pIC50
COc1cc2nccc(Oc3ccc(NC(=O)NC4CC4)c(Cl)c3)c2cc1C(N)=O [Comparative Compound 1, Lovatinib]	7.11

###

Biological target: PDGFRβ(h) (Homo sapiens)
Experiment: In vitro kinase activity test, PDGFRβ(h)
Conditions: read-out: PDGFRβ(h) IC50; Table 2; ATP 10 μM
endpoint label: IC50 (µM)

smiles str	assay value
COc1cc2nccc(Oc3ccc(NC(=S)NC4CC4)c(Cl)c3F)c2cc1C(N)=O	0.031
